# System: TNF-α production from peripheral blood T cells
# METHOD_SUMMARY: TNF-α production from peripheral blood T cells (ELISA)
# Format: cell-based, human
# MEASUREMENT_SETUP: each costimulation condition
MEASURED_ATTRIBUTE: effect on TNF-α production from T cells

> print(dat)
                               input.smiles  assay.value
1  CC(C)(C(=O)O)c1ccc(C(=O)CCCN2CCC(OC(c3ccccc3)c3ccccc3)CC2)cc1    inhibited
2  CC(C)(C)c1ccc(C(=O)CCCN2CCC(OC(c3ccccc3)c3ccccc3)CC2)cc1    inhibited

====

# Test system: IL-4 production from peripheral blood T cells
# METHOD_SUMMARY: IL-4 production from peripheral blood T cells (ELISA)
# Assay type: cell-based, human
# MEASUREMENT_SETUP: each costimulation condition; concentration-dependent
# Procedure: The antibody-coated plates and T cells were prepared similarly as in Example 1 except that the OKT3 concentration was 0.5 μg/ml. The cytokine production by T cells was analyzed in triplicate using 96-well flat-bottomed plates by the same method employed in the T cell proliferation analysis described above. […]
Structures can show the parent of a compound that is named as a salt.
MEASURED_ATTRIBUTE: effect on IL-4 production

> print(dat)
                                   compound         measured.attribute  assay.value
1  CC(C)(C)c1ccc(C(=O)CCCN2CCC(OC(c3ccccc3)c3ccccc3)CC2)cc1  effect on IL-4 production    inhibited
2  NC1=NCC2c3ccccc3Cc3ccccc3N12 (centres unmarked) [epinastine hydrochloride]  effect on IL-4 production    inhibited
3  CC(C)(C(=O)O)c1ccc(C(=O)CCCN2CCC(OC(c3ccccc3)c3ccccc3)CC2)cc1  effect on IL-4 production    inhibited
